Reported values of DC50 for individual entries
System: androgen receptor (AR) in LNCaP and/or VCaP cells
Assay: Androgen Receptor ELISA assay (AR degradation)
Assay type: cell-based
Conditions: LNCaP and/or VCaP cells; 5 hours incubation; media with R1881; read-out: DC50 Code* (degradation of AR ELISA)

Take a look at these entries with their results.
molecule: N#Cc1ccc(O[C@H]2CC[C@H](NC(=O)c3cnc(N4CCC(CN(C5COC5)[C@H]5C[C@H](Oc6ccc7c(c6)C(=O)N(C6CCC(=O)NC6=O)C7=O)C5)CC4)cn3)CC2)cc1Cl (stereo partly shown) [Compound 61]
DC50: < 1 nM
//
molecule: CN1C(=O)CCC(N2C(=O)c3cc(F)c(N4CCN(CC5CCN(c6ccc(C(=O)N[C@H]7CC[C@H](Oc8ccc(C#N)c(Cl)c8)CC7)nn6)CC5)CC4)cc3C2=O)C1=O (stereo partly shown) [Compound 74]
DC50: > 100 nM
//
molecule: CCN(CC1CCN(c2cnc(C(=O)N[C@H]3CC[C@H](Oc4ccc(C#N)c(OC)c4)CC3)cn2)CC1)[C@H]1C[C@H](Oc2ccc3c(c2)C(=O)N(C2CCC(=O)NC2=O)C3=O)C1 (stereo partly shown) [Compound 33]
DC50: < 1 nM
//
molecule: N#Cc1ccc(O[C@H]2CC[C@H](NC(=O)c3cnc(N4CCC(CN(C5COC5)[C@H]5C[C@H](Oc6ccc7c(c6)CN(C6CCC(=O)NC6=O)C7=O)C5)CC4)cn3)CC2)cc1Cl (stereo partly shown) [Compound 21]
DC50: < 1 nM

Ask | // lookup DC50 for CC(C)N(CC1CCN(c2cnc(C(=O)N[C@H]3CC[C@H](Oc4ccc(C#N)c(Cl)c4)CC3)cn2)CC1)[C@H]1C[C@H](Oc2ccc3c(c2)C(=O)N([C@@H]2C(=O)NC(=O)C[C@@H]2C)C3=O)C1 [Compound 76]
Reply | > 100 nM

Ask | // lookup DC50 for CC(C)N(CC1CCN(c2cnc(C(=O)N[C@H]3CC[C@H](Oc4ccc(C#N)c(Cl)c4)CC3)cn2)CC1)[C@H]1C[C@H](Oc2ccc3c(c2)C(=O)N(C2CCC(=O)NC2=O)C3)C1 (stereo partly shown) [Compound 41]
Reply | < 1 nM

----------
Test system: androgen receptor (AR) in LNCaP and/or VCaP cells
Assay: Androgen Receptor ELISA assay (AR degradation)
Format: cell-based
Settings: LNCaP and/or VCaP cells; 5 hours incubation; media with R1881; read-out: DC50 Code* (degradation of AR ELISA)
Reported values of DC50 for individual entries

Take a look at these entries with their results.
molecule: CC(C)N(CC1CCN(c2cnc(C(=O)N[C@H]3CC[C@H](Oc4ccc(C#N)c(Cl)c4)CC3)cn2)CC1)[C@H]1C[C@H](Oc2cc(F)c3c(c2)C(=O)N(C2CCC(=O)NC2=O)C3=O)C1 (stereo partly shown)
DC50: < 1 nM
//
molecule: COc1cc(O[C@H]2CC[C@H](NC(=O)c3cnc(N4CCC(CN(C(C)C)[C@H]5C[C@H](Oc6ccc7c(c6)C(=O)N(C6CCC(=O)NC6=O)C7=O)C5)CC4)cn3)CC2)ccc1C#N (stereo partly shown)
DC50: < 1 nM
//
molecule: COc1cc(O[C@@H]2CC[C@H](NC(=O)c3cnc(N4CCC(CN(C(C)C)[C@H]5C[C@H](Oc6ccc7c(c6)C(=O)N(C6CCC(=O)NC6=O)C7=O)C5)CC4)cn3)C2)ccc1C#N (stereo partly shown)
DC50: > 100 nM
//
molecule: N#Cc1ccc(O[C@H]2CC[C@H](NC(=O)c3cnc(N4CCC(CN(C5COC5)[C@H]5C[C@H](Oc6ccc7c(c6)C(=O)N(C6CCC(=O)NC6=O)C7)C5)CC4)cn3)CC2)cc1Cl (stereo partly shown)
DC50: < 1 nM
//
molecule: CC1(C)[C@H](NC(=O)c2ccn([C@H]3CC[C@H](CCCOc4ccc5c(c4)C(=O)N(C4CCC(=O)NC4=O)C5=O)CC3)n2)C(C)(C)[C@H]1Oc1ccc(C#N)c(Cl)c1 (stereo partly shown)
DC50: > 100 nM

Ask | // lookup DC50 for CC(=O)N(CC1CCN(c2cnc(C(=O)N[C@H]3CC[C@H](Oc4cc(C)c(C#N)c(C)c4)CC3)cn2)CC1)[C@H]1C[C@H](Oc2ccc3c(c2)C(=O)N(C2CCC(=O)NC2=O)C3=O)C1 (stereo partly shown)
Reply | < 1 nM

Ask | // lookup DC50 for CC(C)Oc1cc(N2CCN(CC3CCN(c4ccc(C(=O)N[C@H]5CC[C@H](Oc6ccc(C#N)c(Cl)c6)CC5)nn4)CC3)CC2)cc2c1C(=O)N(C1CCC(=O)NC1=O)C2=O (stereo partly shown)
Reply | < 1 nM

Ask | // lookup DC50 for CC1(N2C(=O)c3cc(F)c(N4CCN(CC5CCN(c6ccc(C(=O)N[C@H]7CC[C@H](Oc8ccc(C#N)c(Cl)c8)CC7)nn6)CC5)CC4)cc3C2=O)CCC(=O)NC1=O (stereo partly shown)
Reply | < 1 nM

Ask | // lookup DC50 for COc1cc(O[C@H]2CC[C@H](NC(=O)c3cnc(N4CCC(CN(C(C)C)[C@H]5C[C@H](Oc6ccc7c(c6)C(=O)N(C6CCC(=O)NC6=O)C7)C5)CC4)cn3)CC2)ccc1C#N (stereo partly shown)
Reply | < 1 nM

Ask | // lookup DC50 for N#Cc1ccc(O[C@H]2CC[C@H](NC(=O)c3cnc(N4CCC(CN(CC5COC5)[C@H]5C[C@H](Oc6ccc7c(c6)CN(C6CCC(=O)NC6=O)C7=O)C5)CC4)cn3)CC2)cc1Cl (stereo partly shown)
Reply | < 1 nM
